Test system: K24384-001-R-PDC complex spheroid growth
Test: Anticancer human tumor K24384-001-R-PDC patient-derived pancreatic adenocarcinoma cell line growth inhibition [AhR]
Conditions: second compound 0.316 µM; first compound 0.000316 µM; hits give low values
Let's look at some compounds and their measured viability, T/C.
reported.endpoint: viability, T/C (%)

1. CC[C@@]1(O)C(=O)OCc2c1cc1n(c2=O)Cc2cc3c(CN(C)C)c(O)ccc3nc2-1 + Cc1ccccc1N=Nc1ccc(NC(=O)c2ccnn2C)c(C)c1 | 97.3
2. CC[C@@]1(O)C(=O)OCc2c1cc1n(c2=O)Cc2cc3c(CN(C)C)c(O)ccc3nc2-1 + Cc1cncc(-c2nc(NCCc3c[nH]c4ccccc34)c3ncn(C(C)C)c3n2)c1 | 118
3. Cn1ncnc1C1c2n[nH]c(=O)c3cc(F)cc(c23)NC1c1ccc(F)cc1 (stereo unspecified) + CC(CO)NC(=O)c1cc(-c2ccc(Cl)cc2)nn(-c2cnn(C)c2)c1=O | 105
4. Cn1ncnc1C1c2n[nH]c(=O)c3cc(F)cc(c23)NC1c1ccc(F)cc1 (stereo unspecified) + Cc1ccccc1N=Nc1ccc(NC(=O)c2ccnn2C)c(C)c1 | 104
5. Cn1ncnc1C1c2n[nH]c(=O)c3cc(F)cc(c23)NC1c1ccc(F)cc1 (stereo unspecified) + Cc1cncc(-c2nc(NCCc3c[nH]c4ccccc34)c3ncn(C(C)C)c3n2)c1 | 98.1
6. CC[C@@]1(O)C(=O)OCc2c1cc1n(c2=O)Cc2cc3c(CN(C)C)c(O)ccc3nc2-1 + CC(CO)NC(=O)c1cc(-c2ccc(Cl)cc2)nn(-c2cnn(C)c2)c1=O | 93.4

###

Tested on: K24384-001-R-PDC complex spheroid growth
Test: Anticancer human tumor K24384-001-R-PDC cell line growth inhibition [AhR]; active means viability on the fitted dose curve at most 10% of control; inactive means the rest;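 further: percent of DMSO vehicle-treated spheroid viability set as 100%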
Details: second compound 0.316 µM; first compound 3.16 µM
Classes used: active, inactive

1) Nc1ccccc1NC(=O)c1ccc(CNC(=O)OCc2cccnc2)cc1 + CC(CO)NC(=O)c1cc(-c2ccc(Cl)cc2)nn(-c2cnn(C)c2)c1=O | inactive
2) COc1cccc2c1C(=O)c1c(O)c3c(c(O)c1C2=O)CC(O)(C(=O)CO)CC3OC1CC(N)C(O)C(C)O1 (stereo not drawn) + CC(CO)NC(=O)c1cc(-c2ccc(Cl)cc2)nn(-c2cnn(C)c2)c1=O | active
3) COc1cc(Nc2ncc3c(n2)-c2ccc(Cl)cc2C(c2c(F)cccc2OC)=NC3)ccc1C(=O)O + Cc1cncc(-c2nc(NCCc3c[nH]c4ccccc34)c3ncn(C(C)C)c3n2)c1 | inactive

###

Tested on: K24384-001-R-PDC complex spheroid growth
Experiment: Anticancer human tumor K24384-001-R-PDC cell line growth inhibition [AhR];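 further: percent of DMSO vehicle-treated spheroid viability set as 100%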
Details: second compound 1 µM; first compound 0.01 µM; hits give low values
reported.endpoint: viability, T/C (%)

1. CC[C@@]1(O)C(=O)OCc2c1cc1n(c2=O)Cc2cc3c(CN(C)C)c(O)ccc3nc2-1 + Cc1ccccc1N=Nc1ccc(NC(=O)c2ccnn2C)c(C)c1 | 67.8
2. CC[C@@]1(O)C(=O)OCc2c1cc1n(c2=O)Cc2cc3c(CN(C)C)c(O)ccc3nc2-1 + Cc1cncc(-c2nc(NCCc3c[nH]c4ccccc34)c3ncn(C(C)C)c3n2)c1 | 72.4
3. Cn1ncnc1C1c2n[nH]c(=O)c3cc(F)cc(c23)NC1c1ccc(F)cc1 (stereo unspecified) + Cc1ccccc1N=Nc1ccc(NC(=O)c2ccnn2C)c(C)c1 | 72.8
4. Nc1ncn(C2CC(O)C(CO)O2)c(=O)n1 (stereo unspecified) + Cc1ccccc1N=Nc1ccc(NC(=O)c2ccnn2C)c(C)c1 | 99.2
5. Cn1ncnc1C1c2n[nH]c(=O)c3cc(F)cc(c23)NC1c1ccc(F)cc1 (stereo unspecified) + CC(CO)NC(=O)c1cc(-c2ccc(Cl)cc2)nn(-c2cnn(C)c2)c1=O | 65.8
6. Nc1ncn(C2CC(O)C(CO)O2)c(=O)n1 (stereo unspecified) + CC(CO)NC(=O)c1cc(-c2ccc(Cl)cc2)nn(-c2cnn(C)c2)c1=O | 93.4
